System: A498
protocolNotes: Cytotoxicity against human A498 cells assessed as cell growth at 10 uM after 48 hrs by SRB assay relative to control
Format: functional
conditionSummary: A498, 48 h, read-out: Activity
quantityName: growth at 10 µM (%)

chemicalStructure: Cn1cc(C2=C(c3cn(CCCCCC#N)c4ccccc34)C(=O)N(O)C2=O)c2ccccc21
quantityName: growth at 10 µM
measurementUnits: %
value: 76.7
--
chemicalStructure: Cn1cc(C2=C(c3cn(CCCCCC(=O)O)c4ccccc34)C(=O)N(O)C2=O)c2ccccc21
quantityName: growth at 10 µM
measurementUnits: %
value: 91.9
--
chemicalStructure: N#CCCCCCn1cc(C2=C(c3cn(CCCCCC#N)c4ccccc34)C(=O)NC2=O)c2ccccc21
quantityName: growth at 10 µM
measurementUnits: %
value: 54.5
--
chemicalStructure: CC(C)n1cc(C2=C(c3cn(C)c4ccccc34)C(=O)N(O)C2=O)c2ccccc21
quantityName: growth at 10 µM
measurementUnits: %
value: 99
--
chemicalStructure: O=C1C2=C(C(=O)N1O)c1cn(c3ccccc13)CCCCCCn1cc2c2ccccc21
quantityName: growth at 10 µM
measurementUnits: %
value: 88.3
--
chemicalStructure: Cn1cc(C2=C(c3cn(C)c4ccccc34)C(=O)N(O)C2=O)c2ccccc21
quantityName: growth at 10 µM
measurementUnits: %
value: 85.8
--
chemicalStructure: CC(C)n1cc(C2=C(c3c[nH]c4ccccc34)C(=O)N(O)C2=O)c2ccccc21
quantityName: growth at 10 µM
measurementUnits: %
value: 93.5
--
chemicalStructure: O=C(O)CCCCCn1cc(C2=C(c3c[nH]c4ccccc34)C(=O)N(O)C2=O)c2ccccc21
quantityName: growth at 10 µM
measurementUnits: %
value: 88.5
--
chemicalStructure: Cn1cc(C2=C(c3c[nH]c4ccccc34)C(=O)N(O)C2=O)c2ccccc21
quantityName: growth at 10 µM
measurementUnits: %
value: 79.1

###

Test system: TK-10
protocolNotes: Cytotoxicity against human TK10 cells assessed as cell growth at 10 uM after 48 hrs by SRB assay relative to control
Assay type: functional
conditionSummary: TK-10, 48 h, read-out: Activity
Known growth at 10 µM of a selection of molecules
quantityName: growth at 10 µM

chemicalStructure: O=C(O)CCCCCn1cc(C2=C(c3c[nH]c4ccccc34)C(=O)N(O)C2=O)c2ccccc21
value: 99%
--
chemicalStructure: Cn1cc(C2=C(c3c[nH]c4ccccc34)C(=O)N(O)C2=O)c2ccccc21
value: 120%
--
chemicalStructure: Cn1cc(C2=C(c3cn(CCCCCC#N)c4ccccc34)C(=O)N(O)C2=O)c2ccccc21
value: 116%
--
chemicalStructure: Cn1cc(C2=C(c3cn(CCCCCC(=O)O)c4ccccc34)C(=O)N(O)C2=O)c2ccccc21
value: 107%
--
chemicalStructure: Cn1cc(C2=C(c3cn(C)c4ccccc34)C(=O)N(O)C2=O)c2ccccc21
value: 118%
--
chemicalStructure: N#CCCCCCn1cc(C2=C(c3cn(CCCCCC#N)c4ccccc34)C(=O)N(O)C2=O)c2ccccc21
value: 70 to 84.2%

###

experimentalTarget: CDK2/Cyclin A2 (Homo sapiens)
protocolNotes: Inhibition of full length human CDK2/cyclin A using histone H1 as substrate in presence of [gamma-33P]ATP

chemicalStructure: O=C(O)CCCCCn1cc(C2=C(c3c[nH]c4ccccc34)C(=O)N(O)C2=O)c2ccccc21
experimentalTarget: CDK2/Cyclin A2 (Homo sapiens)
IC50: > 10 µM
--
chemicalStructure: Cn1cc(C2=C(c3cn(CCCCCC#N)c4ccccc34)C(=O)N(O)C2=O)c2ccccc21
experimentalTarget: CDK2/Cyclin A2 (Homo sapiens)
IC50: > 10 µM
--
chemicalStructure: N#CCCCCCn1cc(C2=C(c3cn(CCCCCC#N)c4ccccc34)C(=O)N(O)C2=O)c2ccccc21
experimentalTarget: CDK2/Cyclin A2 (Homo sapiens)
IC50: > 10 µM
--
chemicalStructure: Cn1cc(C2=C(c3cn(CCCCCC(=O)O)c4ccccc34)C(=O)N(O)C2=O)c2ccccc21
experimentalTarget: CDK2/Cyclin A2 (Homo sapiens)
IC50: 4 µM
--
chemicalStructure: CCn1cc(C2=C(c3cn(C)c4ccccc34)C(=O)N(O)C2=O)c2ccccc21
experimentalTarget: CDK2/Cyclin A2 (Homo sapiens)
IC50: > 10 µM
